measurement-name: melting point

| compound | melting point |
| --- | --- |
| [N-]=[N+]=C1c2cc(F)ccc2-c2ccc(F)cc21 | 148 to 150 °C |
| O=S1(=O)N[C@@H](c2cccc(Br)c2)c2ccccc21 | 163 °C |
| C/C(=C(\C#N)C(N)=S)N1CCCN(c2cccc(Cl)c2)CC1 | 133 to 134 °C |
| O=C(CN1CCC(Cc2ccc(F)cc2)CC1)Nc1cccc([N+](=O)[O-])c1 | 118 to 120 °C |
| Clc1ccc(C(=Cn2cnnn2)OCc2ccccc2)c(Cl)c1 | 92 °C |
| O=C(c1ccc(S)cc1)c1cccc([N+](=O)[O-])c1 | 114 °C |

Any idea what its melting point is? The compound is `COc1nc(Cl)cc2nc(S(=O)(=O)Nc3nn(C)cc3Br)nn12` 230 to 232 °C

Any idea what its melting point is? The compound is `C#CC1=Cc2ccccc2Sc2ccc(S(C)(=O)=O)cc21` 140 to 143 °C

Any idea what its melting point is? The compound is `COC(=O)c1cc(-c2cc(-c3ccccc3O)nc(NC(=O)c3cccs3)c2C#N)ccc1OC` 271 to 273 °C

Any idea what its melting point is? The compound is `CC(C)C(=O)NC[C@H]1CN(c2ccc3c(c2)CCCc2cnoc2-3)C(=O)O1` 187 to 193 °C

Any idea what its melting point is? The compound is `CN(C)C(=O)c1ccc2ccccc2c1-c1ccccc1` 86 to 87 °C

###

measurement-name: melting point (°C)

[A] CCc1ccc(-c2ccc(-c3ccc(C)s3)c(F)c2)cc1
[B] CC(=O)c1ccccc1NC(C(N)=O)c1c(Cl)cccc1Cl (stereo not given)
API: POST /compare with A and B ; response names the item with higher melting point. Refer to your chosen item by its label in the answer. B

###

Quick list: melting point per entry.

| compound | melting point |
| --- | --- |
| Cc1nc2nc(SCc3ccccc3)nn2c(C)c1C | 134 to 135 °C |
| COc1cc2onc(C3CCN(c4c(C)[nH]c5ccccc45)CC3)c2cc1OC | 176 to 178 °C |
| O=C(NC1CCCC1)N1CCc2[nH]cnc2C1 | 225 °C |
| CS(=O)c1nccc(-c2nc(=O)c3ccccc3s2)n1 (stereo unspecified) | 250 to 252 °C |
| CC1(C2C(=O)N(CC(F)(F)F)c3ccccc32)OCCO1 (stereo unspecified) | 87 to 89 °C |

Next compound, melting point to be filled in.
Any idea what its melting point is? The compound is `COc1ccc(C(=O)Nc2ccccc2)cc1NC(=S)Nc1cc(Cl)cc(Cl)c1` 195 to 197 °C

###

measurement-name: melting point

# example entries with known answers
| compound | melting point |
| --- | --- |
| O=c1cc(-c2ccncn2)nc2n1Cc1ccccc1N2 | 290 to 292 °C |
| C=Cn1cccc(O)c1=S | 84 °C |
| COc1ccc(CC(=O)NC(NC(=NC#N)Nc2cc(Cl)ccc2F)C(C)(C)C)cc1OC (stereo not given) | 187 to 188 °C |
| CCc1nc2c([nH]1)c(=S)n(CC)c(=O)n2CC(C)CC (stereo not given) | 115 to 117 °C |
| C=CCN1CCCCNC1=C[N+](=O)[O-] | 82 to 83 °C |
| CN1C(=O)[C@H](NC(=O)/C=C/c2ccccc2Br)N=C(c2ccccc2)c2ccccc21 | 113 to 116 °C |
| CCOC(=O)c1cnc2ccc(C(=O)c3ccc(Cl)cc3)cc2c1O | > 300 °C |
| O=c1c(-c2ccccc2)c(-c2ccccc2)oc2cc(OCC3CO3)ccc12 (stereo not given) | 143 to 145 °C |
| O=C(Cc1ccc2c(c1)OCO2)N[C@H]1CC[C@H](CCN2CCN(c3nccc4c3CCO4)CC2)CC1 | 212 °C |

Next compound, melting point to be filled in.
Any idea what its melting point is? The compound is `O=C(O)[C@H](Cc1ccccc1)NC(=O)[C@@H]1CCCN1S(=O)(=O)c1ccc(Cl)cc1` 69 to 71 °C

###

Quick list: melting point per entry.

| compound | measurement-name | observed-result |
| --- | --- | --- |
| Cc1nc(N)nc(N)c1-c1ccc2ccccc2c1 | melting point | 221 to 222 °C |
| Cc1ccc(C(CC(=O)O)C(C#N)c2cccnc2)cc1 (configuration not stated) | melting point | 185 to 187 °C |
| O=S1NC(Cc2coc3ccc(Cl)cc23)=NO1 (configuration not stated) | melting point | 140 °C |

Next compound, melting point to be filled in.
Any idea what its melting point is? The compound is COc1cc(N)c(Cl)cc1-c1noc(C2CCN(CC3CCCO3)CC2)n1 (configuration not stated) 148 °C

###

Quick list: melting point per entry.

# example entries with known answers
| compound | measurement-name | observed-result |
| --- | --- | --- |
| CCCn1c(=O)c2c(nc(C=Cc3cc(OC)c(OC)cc3S(=O)(=O)O)n2C)n(CCC)c1=O | melting point | 192 to 194 °C |
| CC1Oc2ccc(C3=NNC(=O)CC3)cc2N(C)C1=O (stereo unspecified) | melting point | 210 to 211 °C |
| CCCCNC(=O)NCCc1nc(-c2ccc(-c3ccccc3)cc2)c[nH]1 | melting point | 178 °C |
| O=C(Cc1noc2ccccc12)N[C@H]1CC[C@H](CCN2CCC(c3cccc4c3CCO4)CC2)CC1 | melting point | 214 °C |
| CCCOc1nc2cccc(C(=O)OCC)c2n1Cc1ccc(-c2ccccc2-c2nnn[nH]2)cc1 | melting point | 157 to 159 °C |
| O=C(O)C1C=CCn2c(=O)n(CCCS)c(=O)n21 (stereo unspecified) | melting point | 119 to 121 °C |
| CCOC(=O)c1c(C)nc2snnc2c1NC(C)C | melting point | 62 to 65 °C |
| COc1cc(C=CC(=O)CCCCCBr)cc(OC)c1 | melting point | 73 to 76 °C |
| S=C=Nc1cc(Cl)ccc1N1CCOCC1 | melting point | 86 to 87 °C |
| CCOC(=O)N1CCC(Nc2nc3ccccc3n2Cc2ccc(CO)o2)CC1 | melting point | 138 to 140 °C |

Any idea what its melting point is? The compound is `CN(c1ccccc1)c1ncccc1NC(=O)c1ccccc1Br` 144 to 146 °C

Any idea what its melting point is? The compound is `NC(=O)c1ccnc(N2CCN(Cc3ccc(F)cc3)C2=O)c1` 206 to 208 °C

Any idea what its melting point is? The compound is CC(C)(C)OC(=O)C(N)c1nc(-c2ncn3c2C2CCN2C(=O)c2cc(F)ccc2-3)no1 (stereo unspecified) 147 to 150 °C

Any idea what its melting point is? The compound is `NC(=O)c1cc(CO)ccc1[N+](=O)[O-]` 143 to 145 °C

Any idea what its melting point is? The compound is `CCCCNC(=N)OC(=N)N(CCCC)c1cccc(-c2ccnc3c(C(=O)c4cccs4)cnn23)c1` 180 to 181 °C

Any idea what its melting point is? The compound is N#CC1CC(=O)c2cc(F)ccc2O1 (stereo unspecified) 87 to 89 °C

Any idea what its melting point is? The compound is `COc1cc(C(Cl)(Cl)Cl)cc(OC)n1` 71 to 73 °C

Any idea what its melting point is? The compound is CS(=O)(=O)c1ccc(N2CC(O)(C(F)(F)F)N=C2c2ccccc2)cc1 (stereo unspecified) 189 to 190 °C

Any idea what its melting point is? The compound is COC(=O)COc1cc2c(c(Cl)c1Cl)C(=O)C(CCOC(C)=O)C2 (stereo unspecified) 111 to 113 °C

Any idea what its melting point is? The compound is CCOC(=O)C1COc2cc(C(C)=O)ccc2O1 (stereo unspecified) 60 °C

Any idea what its melting point is? The compound is `CCCCCCCC(=O)NCc1cccc(-c2ccc(C=CC(=O)O)cc2)c1` 176 °C

Any idea what its melting point is? The compound is Cc1cc(C[C@H](N)[C@H](O)c2ccc(F)cc2)cc(OC(F)(F)C(F)F)c1 (racemic) 96 to 98 °C

Any idea what its melting point is? The compound is `CCOC(=O)c1ncn2c1[C@@H]1CCCN1C(=O)c1cc(Cl)ccc1-2` 242 to 244 °C

###

Quick list: melting point per entry.

# example entries with known answers
| molecule | observed-result |
| --- | --- |
| Cc1cccc(CC(=O)c2ccnc(-c3ccc(N4CCOCC4)cc3)c2)n1 | 114 °C |
| Cc1ccc(OCC(=O)O)c2sc3ccccc3c(=O)c12 | 198 to 235 °C |
| CO/C(=C\c1ccc2oc(Cc3nc(-c4ccccc4)oc3C)cc2c1)C(N)=O | 160 to 164 °C |
| CCOC(=O)OC12Oc3cc(C(C)C)ccc3C1(OC(=O)OCC)C(=O)c1ccccc12 (stereo unspecified) | 150 to 153 °C |
| CC(C)Cc1ccc(C(C)C(=O)NCCCNC2=NCCN2)cc1 (stereo unspecified) | 155 to 168 °C |

Any idea what its melting point is? The molecule is `C#CCCCCCCCOc1cccc(C(N)=O)c1` 82 to 83 °C

Any idea what its melting point is? The molecule is `CCOC(=O)Cc1sc(SCc2cc(O)nc(C)n2)nc1C` 131 to 132 °C

Any idea what its melting point is? The molecule is Oc1cc(C(O)C2CCCCC2)c2ccccc2n1 (stereo unspecified) > 250 °C

Any idea what its melting point is? The molecule is `Cc1csc(CN(C)C(=O)C23CC4CC(CC(C4)C2)C3)c1` 87 to 88 °C

Any idea what its melting point is? The molecule is `Cc1ccc(-c2cc(C(F)(F)F)n3ncc(-c4cccnc4)c3n2)cc1C(F)(F)F` 182 °C
